- Target Desc: T1, human C1s (human, UniProt P09871 16-688)
- T1 construct: Analyte in the Biacore assays; also called hC1s; serum-derived human C1s (CompTech)
- T1 sequence: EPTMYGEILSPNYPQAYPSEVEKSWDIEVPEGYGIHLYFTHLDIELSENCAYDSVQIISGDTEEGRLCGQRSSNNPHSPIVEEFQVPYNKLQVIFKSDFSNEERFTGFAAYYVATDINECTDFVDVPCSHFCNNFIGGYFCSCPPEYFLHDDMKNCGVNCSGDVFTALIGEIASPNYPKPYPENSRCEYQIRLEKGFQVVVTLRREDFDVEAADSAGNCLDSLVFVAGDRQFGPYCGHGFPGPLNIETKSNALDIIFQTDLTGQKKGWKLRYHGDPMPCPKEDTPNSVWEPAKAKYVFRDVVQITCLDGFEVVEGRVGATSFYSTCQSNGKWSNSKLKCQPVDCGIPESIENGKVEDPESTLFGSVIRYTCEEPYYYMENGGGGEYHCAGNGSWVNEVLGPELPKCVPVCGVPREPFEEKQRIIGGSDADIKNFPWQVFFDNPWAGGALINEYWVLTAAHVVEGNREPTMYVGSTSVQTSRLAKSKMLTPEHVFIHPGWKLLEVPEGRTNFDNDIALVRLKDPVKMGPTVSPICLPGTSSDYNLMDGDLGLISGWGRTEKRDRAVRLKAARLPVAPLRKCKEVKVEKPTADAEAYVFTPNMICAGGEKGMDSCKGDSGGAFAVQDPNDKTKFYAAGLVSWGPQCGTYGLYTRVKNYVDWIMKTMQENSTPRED
- Assay Overview: SPR; KD at pH 5.8 (3 uM Ca) over KD at pH 7.4 (1.2 mM Ca)
// reported KD 5(-)/7(+) per item
Reply with the value as a number alone.

Binder: C1_IPN92H0282-SG4GK/IPN93L0024-SK1 (antibody, human IgG4 S228P, kappa, name in Kabat numbering, V domains shown, Substitutions from IPN009VH2, Kabat numbering; also called IPN92H0282/IPN93L0024) VH: EVMLVESGGGLVKPGGSLRLSCAASGFTFSNYAMSWVRQAPGKGLEWVATISSGGSHTYELDSVDERFTISRDNSKDTLYLQMNSLRAEDTALYYCARLFTKHAMDYWGQGTLVTVSS VL: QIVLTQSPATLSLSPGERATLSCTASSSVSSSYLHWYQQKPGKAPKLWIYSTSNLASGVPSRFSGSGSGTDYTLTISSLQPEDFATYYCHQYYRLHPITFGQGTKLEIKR
Property Name: KD 5(-)/7(+)
Recorded Measurement: 5.18
--
Binder: C1_IPN92H0157-SG4GK/IPN93L0024-SK1 (antibody, human IgG4 S228P, kappa, name in Kabat numbering, V domains shown, Substitutions from IPN009VH2, Kabat numbering; also called IPN92H0157/IPN93L0024) VH: EVMLVESGGGLVKPGGSLRLSCAASGFTFSNYAMSWVRQAPGKGLEWVATISSGGSHTRYLDSVKGRFTISRDNSKDTLYLQMNSLRAEDTALYYCARLFTGHAMDYWGQGTLVTVSS VL: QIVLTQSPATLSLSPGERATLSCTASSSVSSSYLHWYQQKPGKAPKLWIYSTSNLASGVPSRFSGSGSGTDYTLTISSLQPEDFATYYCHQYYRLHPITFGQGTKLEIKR
Property Name: KD 5(-)/7(+)
Recorded Measurement: 5.07

We next turn to a different binder, shown below.
For reference, reported KD 5(-)/7(+) for C1_IPN92H0145-SG4GK/IPN93L0024-SK1 (antibody, human IgG4 S228P, kappa, name in Kabat numbering, V domains shown, Substitutions from IPN009VH2, Kabat numbering; also called IPN92H0145/IPN93L0024) VH: EVMLVESGGGLVKPGGSLRLSCAASGFTFSNYAMSWVRQAPGKGLEWVATISSGGSRTYYLDSVKGRFTISRDNSKDTLYLQMNSLRAEDTALYYCARLFTGHAMDYWGQGTLVTVSS VL: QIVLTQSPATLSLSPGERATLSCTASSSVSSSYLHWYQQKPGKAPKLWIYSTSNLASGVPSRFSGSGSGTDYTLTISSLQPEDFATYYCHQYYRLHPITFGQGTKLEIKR stands at 1.36
